TESTED_ON: h5-HT6 (Homo sapiens (Human))
Sequence (P50406 whole entry): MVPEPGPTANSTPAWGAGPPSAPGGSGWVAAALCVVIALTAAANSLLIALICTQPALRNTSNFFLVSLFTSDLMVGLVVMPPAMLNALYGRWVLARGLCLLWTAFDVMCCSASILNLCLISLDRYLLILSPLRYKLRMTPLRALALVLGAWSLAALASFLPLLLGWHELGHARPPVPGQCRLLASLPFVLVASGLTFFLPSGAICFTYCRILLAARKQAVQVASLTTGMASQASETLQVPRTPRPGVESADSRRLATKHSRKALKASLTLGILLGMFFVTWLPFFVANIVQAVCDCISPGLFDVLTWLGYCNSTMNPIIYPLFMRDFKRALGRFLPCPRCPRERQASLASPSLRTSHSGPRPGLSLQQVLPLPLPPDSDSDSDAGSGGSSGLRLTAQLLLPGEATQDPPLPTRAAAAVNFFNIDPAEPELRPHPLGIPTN
METHOD: h5-HT6 binding assay with [3H]LSD on HEK-293 membranes
CONDITION_CONTEXT: h5-HT6, [3H]LSD, HEK-293 membranes; read-out: h5HT6 binding Ki
Structures can show the parent of a compound that is named as a salt.
Would you kindly list Ki for each of these compounds?
Output spec: scalar in nM, unitless text.

Provide Ki, recorded with h5-HT6 (Homo sapiens (Human)), of CN1CC(Oc2cc(Cl)ccc2OCc2cccc(Cl)c2)C1 [Example 38]
36

Provide Ki, recorded with h5-HT6 (Homo sapiens (Human)), of CC(Oc1ccc(Cl)cc1OC1CNC1)c1ccc(C(F)(F)F)o1 (racemic) [Example 146]
558

Provide Ki, recorded with h5-HT6 (Homo sapiens (Human)), of CC(Oc1ccc(Br)cc1OC1CNC1)c1cccc(Cl)c1 (racemic) [Example 111]
268

Provide Ki, recorded with h5-HT6 (Homo sapiens (Human)), of CN1CC[C@@H](Oc2cc(Cl)ccc2OCc2cccc(Cl)c2)C1 [Example 59]
84

Provide Ki, recorded with h5-HT6 (Homo sapiens (Human)), of Clc1ccc(OCCc2ccccc2)c(OC2CNC2)c1 [Example 186]
33

Provide Ki, recorded with h5-HT6 (Homo sapiens (Human)), of Clc1ccc(OCC2CCCCC2)c(OC2CNC2)c1 [Example 73, trifluoroacetate]
12

Provide Ki, recorded with h5-HT6 (Homo sapiens (Human)), of Clc1cccc(CCOc2ccc(Cl)cc2OC2CNC2)c1 [Example 185]
177

Provide Ki, recorded with h5-HT6 (Homo sapiens (Human)), of Fc1cccc(COc2ccc(Br)cc2OC2CNC2)c1 [Example 17]
39

Provide Ki, recorded with h5-HT6 (Homo sapiens (Human)), of COc1ccc2c(c1)CC(Oc1ccc(Cl)cc1OC1CNC1)C2 (stereo not shown) [Example 177]
123

Provide Ki, recorded with h5-HT6 (Homo sapiens (Human)), of Clc1cccc(COc2ccc(Br)cc2OC2CCNCC2)c1 [Example 65]
41

Provide Ki, recorded with h5-HT6 (Homo sapiens (Human)), of Clc1ccccc1COc1ccc(Br)cc1OC1CNC1 [Example 15, trifluoroacetate]
45

Provide Ki, recorded with h5-HT6 (Homo sapiens (Human)), of CC(Oc1ccc(Cl)cc1OC1CNC1)c1cccc(C(F)(F)F)c1 (stereo in doubt) [Example 101]
746

Provide Ki, recorded with h5-HT6 (Homo sapiens (Human)), of Brc1ccc(OCCc2ccccc2)c(OC2CNC2)c1 [Example 195]
27

Provide Ki, recorded with h5-HT6 (Homo sapiens (Human)), of FC(F)(F)c1ccc(COc2ccc(Br)cc2OC2CNC2)o1 [Example 10]
50

Provide Ki, recorded with h5-HT6 (Homo sapiens (Human)), of C[C@@H](Oc1ccc(Cl)cc1OC1CCNCC1)c1cccc(C(F)(F)F)c1 [Example 135]
1280

Provide Ki, recorded with h5-HT6 (Homo sapiens (Human)), of Clc1cccc(COc2ccc(Cl)cc2OC2CNC2)c1 [Example 37]
89

Provide Ki, recorded with h5-HT6 (Homo sapiens (Human)), of Clc1cccc(COc2ccc(Br)cc2OC2CNC2)c1 [Example 2]
47

Provide Ki, recorded with h5-HT6 (Homo sapiens (Human)), of FC(F)(F)c1ccc(COc2ccc(Cl)cc2OC2CNC2)o1 [Example 54]
77

Provide Ki, recorded with h5-HT6 (Homo sapiens (Human)), of C[C@@H](Oc1ccc(Br)cc1OC1CNC1)c1cccc(C(F)(F)F)c1 [Example 113]
496
